Data origin: ChEMBL document CHEMBL3988442

- Test system: Wolbachia pipientis
- assayOverview: Anti-Wolbachia Cell-Based Screen
- Assay type: functional
- Set-up: scale not given: in the data most compounds retested in dose-response had high values
- runConditions: 5 µM
The campaign covered roughly 48,000 compounds. About 13,000 (27%) showed an effect of 50% or more. The list shows a part of the results.
experimentalEndpoint: Percent Effect (%)
Only the number, expressed in %, is required.

# input Please provide the recorded Percent Effect for CC(C)C(=O)N1CCN(C(=O)c2cc(C(C)C)on2)[C@H]2CS(=O)(=O)C[C@H]21 , tested on Wolbachia pipientis.
# output -2.919

# input Please provide the recorded Percent Effect for Cn1cc(C(=O)N2CCCC(c3ccncc3)C2)cn1 (centres undefined) , tested on Wolbachia pipientis.
# output 78.37

# input Please provide the recorded Percent Effect for Cc1noc(C)c1CN(C)CCC(=O)N1CCc2sccc2C1 , tested on Wolbachia pipientis.
# output -7.36

# input Please provide the recorded Percent Effect for Cc1nc(C)c2c(n1)CCN(C(=O)CN(C)C)CC2 , tested on Wolbachia pipientis.
# output -4.048

# input Please provide the recorded Percent Effect for CCc1cc(NC2CCN(CC(N)=O)CC2)nc(N2CCCCC2)n1 , tested on Wolbachia pipientis.
# output 3.351

# input Please provide the recorded Percent Effect for O=C(O)C(F)(F)F.O=C1COC2(CCN(Cc3cccs3)CC2)CN1c1cncnc1 , tested on Wolbachia pipientis.
# output 100.5

# input Please provide the recorded Percent Effect for NCCc1c(-c2ccccc2)[nH][nH]c1=O.O=C(O)C(=O)O , tested on Wolbachia pipientis.
# output 104.8

###

Property: Percent Effect; scope: individual compounds
- System: Wolbachia pipientis
- assayOverview: Anti-Wolbachia Cell-Based Screen
- Format: functional
- Parameters: scale not given: in the data most compounds retested in dose-response had high values
- runConditions: 5 µM
Hit rate of the full screen: of about 48,000 compounds, about 13,000 (27%) showed an effect of 50% or more. Some of the results follow.
Only the number, expressed in %, is required.

[[record]]
compound = "O=C(c1cccc(Cl)c1)N1CCCC(Nc2ccc(F)cc2)C1 (stereo not given)"
experimentalendpoint = "Percent Effect"
numericresult = -14.25

[[record]]
compound = "COC(=O)NC1(C(=O)Nc2ccc(-c3ncc[nH]3)cc2)CCCC1"
experimentalendpoint = "Percent Effect"
numericresult = 5.421

[[record]]
compound = "O=S(=O)(NCC(c1ccsc1)N1CCCCCC1)c1cccs1 (stereo not given)"
experimentalendpoint = "Percent Effect"
numericresult = 116.8

[[record]]
compound = "CC(=O)NC1CCCN(C(=O)CNc2cc(Cl)cc(Cl)c2)C1 (stereo not given)"
experimentalendpoint = "Percent Effect"
numericresult = -7.422

[[record]]
compound = "C1CCCN(c2nc(C3CC3)ns2)CC1"
experimentalendpoint = "Percent Effect"
numericresult = 16.93


Okay, now this compound:
# input Please provide the recorded Percent Effect for O=C(CCOCc1ccccc1)N1CCCC1c1noc(C2CC2)n1 (stereo not given) , tested on Wolbachia pipientis.
# output 14.67

###

Property: Percent Effect; scope: individual compounds
- Test system: Wolbachia pipientis
- assayOverview: Anti-Wolbachia Cell-Based Screen
- Assay type: functional
- Set-up: scale not given: in the data most compounds retested in dose-response had high values
- runConditions: 5 µM
About 13,000 (27%) of roughly 48,000 compounds showed an effect of 50% or more. This is one part of the list.
Only the number, expressed in %, is required.

Examples with answers:
[[record]]
compound = "CC(C)NC(=O)C1CN(Cc2ccsc2)Cc2ccnn2C1.O=C(O)C(F)(F)F.O=C(O)C(F)(F)F (configuration not stated)"
testedon = "Wolbachia pipientis"
experimentalendpoint = "Percent Effect"
numericresult = 1.409

[[record]]
compound = "CC(C)(C)N1CCN(C(=O)Nc2cc(C(F)(F)F)c[nH]c2=O)CC1"
testedon = "Wolbachia pipientis"
experimentalendpoint = "Percent Effect"
numericresult = 82.7

[[record]]
compound = "Cn1cc(CN2CCCCC2c2ccc(-c3cnn(C)c3)nc2)cn1 (configuration not stated)"
testedon = "Wolbachia pipientis"
experimentalendpoint = "Percent Effect"
numericresult = 49.11

[[record]]
compound = "Cc1noc2nc(C3CCN(Cc4ccccn4)CC3)cc(C(F)F)c12"
testedon = "Wolbachia pipientis"
experimentalendpoint = "Percent Effect"
numericresult = 126.2

[[record]]
compound = "FC(F)Oc1ccc(CNCc2cc(Br)c3c(c2)OCO3)cc1"
testedon = "Wolbachia pipientis"
experimentalendpoint = "Percent Effect"
numericresult = -6.924

[[record]]
compound = "Cc1occc1C(=O)NCC(=O)NCCCOc1ccc(F)cc1"
testedon = "Wolbachia pipientis"
experimentalendpoint = "Percent Effect"
numericresult = -8.265


Okay, now this compound:
# input Bench note: what Percent Effect did Cc1cnn(CCCNC(=O)C2CCCCN2Cc2cccnc2)c1 (configuration not stated) show?
# output 8.943

###

- Test system: Wolbachia pipientis
- assayOverview: Anti-Wolbachia Cell-Based Screen
- Assay type: functional
- Parameters: scale not given: in the data most compounds retested in dose-response had high values
- runConditions: 5 µM
In all, about 48,000 compounds went through this assay and about 13,000 (27%) showed an effect of 50% or more. This is one part of the list.
Property: Percent Effect; scope: individual molecules
Only the number, expressed in %, is required.

Examples with answers:
[[record]]
molecule = "COc1ccc(C[C@H]2CN(c3cc(OC)ncn3)CC[C@H]2OC)cc1.O=C(O)C(F)(F)F"
testedon = "Wolbachia pipientis"
numericresult = -1.133

[[record]]
molecule = "O=C(CC1CCCN1S(=O)(=O)N1CCCCC1)c1cccs1 (centres undefined)"
testedon = "Wolbachia pipientis"
numericresult = -4.447


Okay, now this molecule:
# input Bench note: what Percent Effect did CC(C)n1nc(Cn2cccn2)c2c1CN(C1CCOCC1)C2.O=C(O)C(F)(F)F show?
# output -12.7

###

- Tested on: Wolbachia pipientis
- assayOverview: Anti-Wolbachia Cell-Based Screen
- Format: functional
- Design: scale not given: in the data most compounds retested in dose-response had high values
- runConditions: 5 µM
The whole screen tested about 48,000 compounds, of which about 13,000 (27%) showed an effect of 50% or more. This is one part of the list.
experimentalEndpoint: Percent Effect (%)
Only the number, expressed in %, is required.

Examples with answers:
[[record]]
compound = "CC(C)c1nccn1CCCNC(=O)c1ccc(-c2cn[nH]c2)nc1"
numericresult = -8.447

[[record]]
compound = "COc1ccc(CC(=O)N2CC[C@@]3(O)CCNC[C@H]3C2)c(OC)c1"
numericresult = -12.62

[[record]]
compound = "CC[C@@H](CO)Nc1cc(-c2cn[nH]c2)ncn1"
numericresult = 98.52

[[record]]
compound = "O=C(c1cnn2c1OCCC2)N1CCN(C/C=C/c2ccccc2)CC1"
numericresult = 8.023


# input Bench note: what Percent Effect did COC(=O)[C@@H](Nc1nc(C2CCCC2)nc2c1cnn2C)[C@@H](C)O show?
# output -8.342

# input Bench note: what Percent Effect did CNC(=O)c1cnc(/C=C/c2cc(OC)c3c(c2)OCCO3)s1 show?
# output 15.86

# input Bench note: what Percent Effect did CC(O)CN1CCN(C(=O)c2ccc(N(C)C)nc2)CC1 (stereo not given) show?
# output 3.143

# input Bench note: what Percent Effect did O=C(C1=NN(Cc2ccccc2)c2ccccc2S1(=O)=O)N1CCCC1 show?
# output 25.7

# input Bench note: what Percent Effect did CN(C)C(=O)c1cnn2c1OCCC2 show?
# output 85.82

# input Bench note: what Percent Effect did Cc1nccn1-c1ccc(C(C)NCCc2ccccn2)cc1 (stereo not given) show?
# output 8.244

# input Bench note: what Percent Effect did CC(C)NC(=O)c1cc(-c2ccc(S(C)(=O)=O)cc2)c2cnn(C)c2n1 show?
# output 110.4

###

Property: Percent Effect; scope: individual molecules
- Tested on: Wolbachia pipientis
- assayOverview: Anti-Wolbachia Cell-Based Screen
- Format: functional
- Parameters: scale not given: in the data most compounds retested in dose-response had high values
- runConditions: 5 µM
The campaign covered roughly 48,000 compounds. About 13,000 (27%) showed an effect of 50% or more. This is one part of the list.
Only the number, expressed in %, is required.

[[record]]
molecule = "Cc1cccc(C(=O)N(CCCO)S(=O)(=O)c2cccs2)c1"
numericresult = -17.59

[[record]]
molecule = "O=C(NCc1ccc(-c2ccn[nH]2)cc1)N1CCC(N2CCCC2)C1 (centres undefined)"
numericresult = 1.692

[[record]]
molecule = "COc1cc(N2CCC3(CCN(Cc4nccs4)CC3)C2)ncn1.O=C(O)C(F)(F)F"
numericresult = 189


# input Bench note: what Percent Effect did CC(C(=O)N(C)Cc1nnc2n1CCC2)S(C)(=O)=O (centres undefined) show?
# output 0.343

# input Bench note: what Percent Effect did Cc1noc(CNc2ccc(CC(=O)N3CCSCC3)cc2)n1 show?
# output -10.08

###

- System: Wolbachia pipientis
- assayOverview: Anti-Wolbachia Cell-Based Screen
- Type: functional
- Parameters: scale not given: in the data most compounds retested in dose-response had high values
- runConditions: 5 µM
Screen size: about 48,000 compounds; about 13,000 (27%) showed an effect of 50% or more. Some of the results follow.
experimentalEndpoint: Percent Effect (%)
Only the number, expressed in %, is required.

Examples with answers:
[[record]]
compound = "CCc1nccn1C1CCCN(C(=O)CCc2nccs2)C1 (stereo not drawn)"
testedon = "Wolbachia pipientis"
numericresult = 3.707

[[record]]
compound = "Cc1noc(C2CCC3(CCN(C(=O)c4c(C)noc4C)CC3)O2)n1 (stereo not drawn)"
testedon = "Wolbachia pipientis"
numericresult = -1.941

[[record]]
compound = "COc1cccc(-c2n[nH]cc2-c2nc(CN3CCCC3)no2)c1"
testedon = "Wolbachia pipientis"
numericresult = -0.8918


# input Please provide the recorded Percent Effect for Cc1ccccc1C(C)NC(=O)Cc1c(C)nc2cc(=O)[nH]n2c1C (stereo not drawn) , tested on Wolbachia pipientis.
# output -0.7333

# input Please provide the recorded Percent Effect for COCCN(CCOC)c1ncccc1I , tested on Wolbachia pipientis.
# output 19.77

# input Please provide the recorded Percent Effect for Cc1noc(C)c1CN(C)C(=O)C1CCCN1S(N)(=O)=O (stereo not drawn) , tested on Wolbachia pipientis.
# output 1.482

# input Please provide the recorded Percent Effect for C[C@H]1C[C@@H]2CCN(C(=O)c3ccncn3)C[C@H]2O1 , tested on Wolbachia pipientis.
# output 15.39

# input Please provide the recorded Percent Effect for O=C(O)C(F)(F)F.O=C([C@@H]1COC[C@H]2CN(c3ccncn3)C[C@H]21)N1CCCCO1 , tested on Wolbachia pipientis.
# output -6.047

# input Please provide the recorded Percent Effect for Cn1c(-c2ccc(F)cc2)cn2cc(C(=O)N3CCC(N)C3)nc2c1=O (stereo not drawn) , tested on Wolbachia pipientis.
# output -3.321
